These data points were gathered from patent US6515124B2.

Target: LFA-1 binding to immobilized ICAM-1 (Homo sapiens, UniProt P05107+P20701)
Construct: made in house; host or cells: transfected 293 cells (LFA-1)
Sequence (P20701 26-1170): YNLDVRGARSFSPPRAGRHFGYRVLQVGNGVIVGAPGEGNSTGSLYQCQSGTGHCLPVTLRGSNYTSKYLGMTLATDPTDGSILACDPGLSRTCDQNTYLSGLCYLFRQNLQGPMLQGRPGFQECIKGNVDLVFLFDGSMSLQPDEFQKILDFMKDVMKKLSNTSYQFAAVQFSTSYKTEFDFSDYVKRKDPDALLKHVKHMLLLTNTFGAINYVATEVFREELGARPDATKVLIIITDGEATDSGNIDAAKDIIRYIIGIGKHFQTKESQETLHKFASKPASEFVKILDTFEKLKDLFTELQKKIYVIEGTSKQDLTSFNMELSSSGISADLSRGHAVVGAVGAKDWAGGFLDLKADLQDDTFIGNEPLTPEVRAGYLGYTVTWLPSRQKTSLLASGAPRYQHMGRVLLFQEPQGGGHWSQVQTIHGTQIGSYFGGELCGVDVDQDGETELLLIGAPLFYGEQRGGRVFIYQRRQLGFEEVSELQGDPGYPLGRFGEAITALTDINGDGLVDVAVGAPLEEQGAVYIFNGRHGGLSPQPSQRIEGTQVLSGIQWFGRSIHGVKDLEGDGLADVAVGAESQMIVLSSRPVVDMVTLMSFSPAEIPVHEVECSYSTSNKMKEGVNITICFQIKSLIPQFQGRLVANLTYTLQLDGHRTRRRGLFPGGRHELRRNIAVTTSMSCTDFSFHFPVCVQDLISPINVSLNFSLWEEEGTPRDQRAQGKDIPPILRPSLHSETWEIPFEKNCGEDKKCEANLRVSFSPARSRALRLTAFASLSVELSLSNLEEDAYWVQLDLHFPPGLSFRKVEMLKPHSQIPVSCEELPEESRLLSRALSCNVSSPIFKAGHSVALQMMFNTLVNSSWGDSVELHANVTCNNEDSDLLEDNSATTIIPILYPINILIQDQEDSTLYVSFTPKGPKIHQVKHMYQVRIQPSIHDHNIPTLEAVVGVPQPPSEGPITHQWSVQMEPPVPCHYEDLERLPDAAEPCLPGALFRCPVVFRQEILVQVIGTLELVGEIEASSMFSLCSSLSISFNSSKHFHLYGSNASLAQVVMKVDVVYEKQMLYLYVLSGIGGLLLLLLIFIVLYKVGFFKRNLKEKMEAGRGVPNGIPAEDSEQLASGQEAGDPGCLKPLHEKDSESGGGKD
Sequence (P05107 23-769): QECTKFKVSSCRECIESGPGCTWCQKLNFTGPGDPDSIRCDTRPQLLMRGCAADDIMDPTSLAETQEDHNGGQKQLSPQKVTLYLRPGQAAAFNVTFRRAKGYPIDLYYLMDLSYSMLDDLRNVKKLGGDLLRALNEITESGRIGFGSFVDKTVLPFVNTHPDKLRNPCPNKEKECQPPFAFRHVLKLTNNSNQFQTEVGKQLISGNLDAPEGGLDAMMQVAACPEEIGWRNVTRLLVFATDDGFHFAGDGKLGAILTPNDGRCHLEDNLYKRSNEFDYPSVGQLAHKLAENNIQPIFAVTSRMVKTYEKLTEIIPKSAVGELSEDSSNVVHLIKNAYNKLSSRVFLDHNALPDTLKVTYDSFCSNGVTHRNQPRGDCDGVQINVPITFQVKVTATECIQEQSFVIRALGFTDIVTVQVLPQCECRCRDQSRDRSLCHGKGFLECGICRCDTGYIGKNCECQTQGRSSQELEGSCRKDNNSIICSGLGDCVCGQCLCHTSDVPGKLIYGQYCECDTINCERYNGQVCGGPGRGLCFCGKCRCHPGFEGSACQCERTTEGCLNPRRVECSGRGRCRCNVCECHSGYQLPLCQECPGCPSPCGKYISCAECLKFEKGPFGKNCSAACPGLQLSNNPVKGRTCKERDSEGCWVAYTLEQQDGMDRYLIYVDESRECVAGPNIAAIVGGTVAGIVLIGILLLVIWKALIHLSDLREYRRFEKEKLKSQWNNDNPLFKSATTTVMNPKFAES
Assay: LFA-1/ICAM-1 Protein-Protein Assay (solid-phase ELISA)
Settings: 5dICAM-Ig coated plates; membrane-bound LFA-1 from transfected 293 cells
IC50 less than 3 nM is Satisfied; IC50 greater than or equal to 3 nM is Not satisfied.

- compound: "O=C(O)/C(=C/c1cnc2ccccc2c1)NC(=O)c1ccc(C(=O)CCc2cccc(O)c2)cc1Cl"
  assigned label: "Satisfied"
- compound: "O=C(O)/C(=C/c1ccc2ccccc2c1)NC(=O)c1ccc(C(=O)NCc2cccc3[nH]ccc23)cc1Cl"
  assigned label: "Not satisfied"
- compound: "Cc1nc(C)c(/C=C(\\NC(=O)c2c(C)cc(C(=O)NCc3cc(F)cc(F)c3)cc2C)C(=O)O)s1"
  assigned label: "Not satisfied"
- compound: "O=C(O)/C(=C/c1cnc(-c2cccs2)s1)NC(=O)c1ccc(C(=O)NCc2cccc(O)c2)cc1Br"
  assigned label: "Not satisfied"
- compound: "Nc1ncc(/C=C(\\NC(=O)c2ccc(C(=O)NCc3cccc(O)c3)cc2Cl)C(=O)O)s1"
  assigned label: "Satisfied"
- compound: "O=C(O)/C(=C/c1ccccc1O)NC(=O)c1ccc(C(=O)NCc2cccc(O)c2)cc1Br"
  assigned label: "Satisfied"
- compound: "Cc1cc(C(=O)NCc2cc(F)cc(F)c2)cc(C)c1C(=O)N/C(=C\\c1[nH]cnc1C)C(=O)O"
  assigned label: "Not satisfied"
- compound: "O=C(O)/C(=C/c1ccc2nsnc2c1)NC(=O)c1ccc(C(=O)NCc2cccc(O)c2)cc1Cl"
  assigned label: "Satisfied"
- compound: "O=C(O)/C(=C/c1ccccc1)NC(=O)c1ccc(C(=O)NCc2cccc(O)c2)cc1Cl"
  assigned label: "Not satisfied"
- compound: "O=C(O)/C(=C/c1cnc(Cl)s1)NC(=O)c1ccc(C(=O)NCc2cccc(O)c2)cc1Cl"
  assigned label: "Satisfied"
- compound: "O=C(O)/C(=C/C1CCCNC1)NC(=O)c1ccc(C(=O)NCc2cccc(O)c2)cc1Br (racemic)"
  assigned label: "Not satisfied"
- compound: "Cc1nc(C)c(/C=C(\\NC(=O)c2ccc(C(O)/C=C/c3cccc(O)c3)cc2Cl)C(=O)O)s1 (racemic)"
  assigned label: "Not satisfied"
- compound: "O=C(O)/C(=C/c1cnnc2ccccc12)NC(=O)c1ccc(C(=O)NCc2cccc(O)c2)cc1Br"
  assigned label: "Not satisfied"
- compound: "Cc1nc(C(C)C)c(/C=C(\\NC(=O)c2ccc(C(=O)NCc3cccc(O)c3)cc2Br)C(=O)O)s1"
  assigned label: "Not satisfied"
- compound: "O=C(O)/C(=C/c1ccccc1O)NC(=O)c1ccc(C(=O)NCc2cccc3[nH]ccc23)cc1Cl"
  assigned label: "Not satisfied"
- compound: "Nc1cccc(CNC(=O)c2ccc(C(=O)N/C(=C\\c3cnc4ccccc4c3)C(=O)O)c(Br)c2)c1"
  assigned label: "Satisfied"
- compound: "CC(C)c1csc(/C=C(\\NC(=O)c2ccc(C(=O)NCc3cccc(O)c3)cc2Br)C(=O)O)n1"
  assigned label: "Not satisfied"
- compound: "O=C(O)/C(=C/c1cnc[nH]1)NC(=O)c1ccc(C(=O)NCc2cccc(O)c2)cc1Br"
  assigned label: "Satisfied"
- compound: "Cc1nc(C)c(/C=C(\\NC(=O)c2c(C)cc(C(=O)N[C@H](C)c3cccc4ccccc34)cc2C)C(=O)O)s1"
  assigned label: "Not satisfied"
- compound: "COc1ncc(/C=C(\\NC(=O)c2ccc(C(=O)NCc3cccc(O)c3)cc2Br)C(=O)O)c(OC)n1"
  assigned label: "Not satisfied"
- compound: "O=C(O)/C(=C/c1cc2c(cc1Cl)OCO2)NC(=O)c1ccc(C(=O)NCc2cccc(O)c2)cc1Cl"
  assigned label: "Satisfied"
- compound: "O=C(O)/C(=C/C1CCNCC1)NC(=O)c1ccc(C(=O)NCc2cccc(O)c2)cc1Br"
  assigned label: "Not satisfied"
- compound: "O=C(O)/C(=C/CC1CCCCN1)NC(=O)c1ccc(C(=O)NCc2cccc(O)c2)cc1Br (racemic)"
  assigned label: "Not satisfied"
- compound: "C[C@@H](NC(=O)c1cc(Cl)c(C(=O)N/C(=C\\c2ccc3[nH]nnc3c2)C(=O)O)c(Cl)c1)c1cccc2ccccc12"
  assigned label: "Not satisfied"
- compound: "Cc1nnsc1/C=C(\\NC(=O)c1ccc(C(=O)NCc2cccc(O)c2)cc1Br)C(=O)O"
  assigned label: "Not satisfied"
- compound: "O=C(O)/C(=C/c1nc(C(F)(F)F)cs1)NC(=O)c1ccc(C(=O)NCc2cccc(O)c2)cc1Br"
  assigned label: "Not satisfied"
- compound: "O=C(O)/C(=C/c1cccc2ccccc12)NC(=O)c1ccc(C(=O)NCc2cccc(O)c2)cc1Br"
  assigned label: "Not satisfied"
- compound: "CN(C)c1ncc(/C=C(\\NC(=O)c2ccc(C(=O)NCc3cccc(O)c3)cc2Br)C(=O)O)s1"
  assigned label: "Satisfied"
